IC50: recorded values
# Tested on: Plasmodium falciparum
# assay_summary: microbe, parasite or virus in culture
# stated_conditions: NF54
# Description: Antiplasmodial activity against chloroquine-sensitive Plasmodium falciparum NF54 asexual erythrocyte stages by parasite lactate dehydrogenase assay

{"columns": ["compound", "u", "IC50"],
 "data": [
  ["NCc1csc(NC(=O)c2ccnn2Cc2ccccc2)n1", "nM", 43700],
  ["CC(C)(C)c1cc(C(=O)Nc2nc(CN)cs2)n(Cc2ccc(Br)cc2)n1", "nM", 12800],
  ["CC(C)(C)c1cc(C(=O)Nc2cccc(CN)n2)n(Cc2ccccc2)n1", "nM", 125],
  ["Cc1ccc(-c2cc(C(=O)Nc3nc(CN)cs3)n(Cc3ccccc3)n2)cc1", "nM", 2030],
  ["CC(C)(C)c1cc(C(=O)Nc2nc(CN)cs2)n(Cc2ccccc2Cl)n1", "nM", 1840],
  ["CC(C)(C)c1cc(C(=O)Nc2ccc(CN)c3ccccc23)n(Cc2ccccc2)n1", "nM", 7590],
  ["CC(C)(C)c1cc(C(=O)Nc2nc(CN)cs2)n(Cc2ccccc2)n1", "nM", 20.3],
  ["C[C@H]1[C@H](OC(=O)CCC(=O)O)O[C@@H]2O[C@@]3(C)CC[C@H]4[C@H](C)CC[C@@H]1[C@@]24OO3 [ARTESUNATE]", "nM", 5.2],
  ["CC(C)(C)c1ccc(Cn2nc(C(C)(C)C)cc2C(=O)Nc2nc(CN)cs2)cc1", "nM", 2580]
]}
